Test system: T47D
experiment-description: NCI tumour cell line growth inhibition, 48 h
Calls of active or inactive are those of the source. No stated cut-off is given here; in the data, active = GI50 up to about 1.1 µM and inactive = higher.
test-readout: GI50

// solved cases for GI50 follow
compound	GI50
Cc1nc2ccccc2c(=O)n1NC(=S)Nc1ccc(Cl)cc1[N+](=O)[O-]	> 100 µM (inactive)
COc1c(OC/C=C(\C)CCC=C(C)C)ccc2ccc(=O)oc12	62.5 µM (inactive)
O=C(Nc1ccccc1)c1cc(S(=O)(=O)NC2=Nc3ccc(Cl)cc3C(c3ccccc3)N2)c(SSc2cc(Cl)c(C(=O)Nc3ccccc3)cc2S(=O)(=O)NC2=Nc3ccc(Cl)cc3C(c3ccccc3)N2)cc1Cl (stereo not given)	> 100 µM (inactive)
CC(C)(C)[Si](C)(C)OC1(CCc2ccccc2OS(=O)(=O)C(F)(F)F)CCCC=C1COCc1ccccc1 (stereo not given)	6.35 µM (inactive)

Read the next record carefully.
Q: I'd like to know its GI50. The compound in question is Cc1cccc(/C=N/NC(=S)NC2CCCCC2)n1
A: 2.58 µM (inactive)
